// data source = PubChem BioAssay AID1918936

- Tested on: 349418-098-R-PDC complex spheroid viability
- experimentDescription: Anticancer human tumor 349418-098-R-PDC patient-derived lung adenocarcinoma cell line growth inhibition
- cond: second compound 3.16 µM; first compound 3 µM; stronger effect = lower value
Field: viability, T/C. Provide a value for each of the compounds that follow.
Provide the reading as a plain figure in %.

In one line, give reported viability, T/C of the entry CCN(c1cc(-c2ccc(CN3CCOCC3)cc2)cc(C(=O)NCc2c(C)cc(C)[nH]c2=O)c1C)C1CCOCC1 + NC1CC1c1ccc(-c2cccc(O)c2)cc1 . 14.3

In one line, give reported viability, T/C of the entry Nc1ccccc1NC(=O)c1ccc(CNC(=O)OCc2cccnc2)cc1 + NC1CCC(NC2CC2c2ccccc2)CC1 . 5.33

In one line, give reported viability, T/C of the entry NS(=O)(=O)OCC1CC(n2ccc3c(NC4CCc5ccccc54)ncnc32)CC1O (stereo not drawn) + NC1CC1c1ccc(-c2cccc(O)c2)cc1 . 4.44

###

- Tested on: 349418-098-R-PDC complex spheroid viability
- experimentDescription: Anticancer human tumor 349418-098-R-PDC cell line growth inhibition;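 further: spheroids exposed to agents for seven days before readout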
- cond: curve of first compound; second compound 1 µM
measure: IC50 (nM)
Provide the reading as a plain figure in nM.

In one line, give reported IC50 of the entry CC(C)CC(NC(=O)CNC(=O)c1cc(Cl)ccc1Cl)B1OC(=O)CC(CC(=O)O)(C(=O)O)O1 (centres undefined) + NC1CCC(NC2CC2c2ccccc2)CC1 . 0.681

In one line, give reported IC50 of the entry NS(=O)(=O)OCC1CC(n2ccc3c(NC4CCc5ccccc54)ncnc32)CC1O (centres undefined) + NC1CCC(NC2CC2c2ccccc2)CC1 . 93

In one line, give reported IC50 of the entry CC1COCCN1c1cc(-c2ccnn2C)c2ccnc(-c3ccn[nH]3)c2n1 (centres undefined) + NC1CCC(NC2CC2c2ccccc2)CC1 . 11.4

In one line, give reported IC50 of the entry Nc1ncn(C2CC(O)C(CO)S2)c(=O)n1 (centres undefined) + NC1CC1c1ccc(-c2cccc(O)c2)cc1 . 27.9

###

- Test system: 349418-098-R-PDC complex spheroid viability
- experimentDescription: Anticancer human tumor 349418-098-R-PDC cell line growth inhibition;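 further: spheroids exposed to agents for seven days before readout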;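 on viability, T/C: 100% = DMSO vehicle control wells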
- cond: second compound 1 µM; first compound 0.00949 µM; stronger effect = lower value
measure: viability, T/C (%)
Provide the reading as a plain figure in %.

In one line, give reported viability, T/C of the entry CCN(c1cc(-c2ccc(CN3CCOCC3)cc2)cc(C(=O)NCc2c(C)cc(C)[nH]c2=O)c1C)C1CCOCC1 + NC1CCC(NC2CC2c2ccccc2)CC1 . 106

In one line, give reported viability, T/C of the entry CCN(c1cc(-c2ccc(CN3CCOCC3)cc2)cc(C(=O)NCc2c(C)cc(C)[nH]c2=O)c1C)C1CCOCC1 + NC1CC1c1ccc(-c2cccc(O)c2)cc1 . 123

In one line, give reported viability, T/C of the entry Nc1ccn(C2OC(CO)C(O)C2(F)F)c(=O)n1 (configuration not stated) + NC1CC1c1ccc(-c2cccc(O)c2)cc1 . 4.17

In one line, give reported viability, T/C of the entry COc1cc(C2c3cc4c(cc3C(OC3OC5COC(C)OC5C(O)C3O)C3COC(=O)C23)OCO4)cc(OC)c1O (configuration not stated) + NC1CC1c1ccc(-c2cccc(O)c2)cc1 . 97.6

In one line, give reported viability, T/C of the entry Nc1ccn(C2OC(CO)C(O)C2(F)F)c(=O)n1 (configuration not stated) + NC1CCC(NC2CC2c2ccccc2)CC1 . 5.25

In one line, give reported viability, T/C of the entry Nc1ccccc1NC(=O)c1ccc(CNC(=O)OCc2cccnc2)cc1 + NC1CC1c1ccc(-c2cccc(O)c2)cc1 . 106

In one line, give reported viability, T/C of the entry Nc1ccccc1NC(=O)c1ccc(CNC(=O)OCc2cccnc2)cc1 + NC1CCC(NC2CC2c2ccccc2)CC1 . 117
